The reported numbers originate from patent US20250034269A1.

tested_on: T1, monomeric cynomolgus LTBR ECD (S28-M227) Fc fusion avi biotinylated (P1AE4411) (cynomolgus, UniProt P0DOX5 223-449 = IgG part, biotinylated avi tag)
T1 construct: also called cyno LTBR
assay_details: SPR, IgG captured;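 further: rate constants and KD obtained by fitting double-referenced sensorgrams to a 1:1 Langmuir binding model, with dissociation followed for 600 s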
assay_readout: kon (M⁻¹ s⁻¹)
Please reply with the bare figure in M⁻¹ s⁻¹ and do not write the unit itself.

// query Recall and state the measured kon for P1AE9457 (antibody, human IgG1, kappa, L234A L235A, V domains shown, human IgG1 PG LALA; from transgenic rabbit immunization; also called LTBR (9457)) VH: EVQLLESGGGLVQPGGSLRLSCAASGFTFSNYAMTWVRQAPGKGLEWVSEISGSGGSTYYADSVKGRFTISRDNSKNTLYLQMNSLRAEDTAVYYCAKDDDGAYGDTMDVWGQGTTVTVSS VL: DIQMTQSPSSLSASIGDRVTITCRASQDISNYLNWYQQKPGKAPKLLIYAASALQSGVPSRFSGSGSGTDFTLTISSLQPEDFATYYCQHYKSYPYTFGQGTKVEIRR .
// result 67900

// query Please report kon for the following binder: P1AF0079 (antibody, human IgG1, kappa, L234A L235A, V domains shown, human IgG1 PG LALA; from transgenic rabbit immunization; also called LTBR (0079)) VH: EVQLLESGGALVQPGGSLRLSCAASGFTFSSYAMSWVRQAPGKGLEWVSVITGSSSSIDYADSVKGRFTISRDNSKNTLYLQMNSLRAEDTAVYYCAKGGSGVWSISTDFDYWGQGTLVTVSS VL: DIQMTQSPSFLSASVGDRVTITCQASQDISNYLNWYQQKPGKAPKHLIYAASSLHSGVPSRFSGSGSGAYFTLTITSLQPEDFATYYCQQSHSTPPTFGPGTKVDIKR
// result 67600
